# assaySummary: protein stability index of a GFP-peptide fusion (yeast GPS) (PSI 1-4); higher = more stable; sorted into four equal gates, so the index is relative within each strain
# measurementContext: ubr1∆
parameter: protein stability index
Hey, just send me the number, nothing else.

In the examples that follow, each entry is paired with its recorded protein stability index.
{"columns": ["monomerSequence", "protein stability index"],
 "data": [
  ["LQSDKNFLDNCLFENDL [ITC1]", 3.01],
  ["RFPETMDETQTRAKIGG [RPO21]", 3.42]
]}

**Query** Give the measured protein stability index of DDHNGEVWSVSWNLTGT [YGL100W/SEH1] .
**Result** 2.73

**Query** Give the measured protein stability index of LANRSKENFILDSLMKT [YJL039C/NUP192] .
**Result** 2.69

**Query** Give the measured protein stability index of IEQSITKNIPITHRDLH [SSN8] .
**Result** 2.78

----------
# assaySummary: protein stability index of a GFP-peptide fusion (yeast GPS) (PSI 1-4); higher = more stable; sorted into four equal gates, so the index is relative within each strain
# measurementContext: ubr1∆
parameter: protein stability index
Hey, just send me the number, nothing else.

{"columns": ["monomerSequence", "protein stability index"],
 "data": [
  ["GKVVGDKWESYLNLLQE [RPB10]", 3.26]
]}

**Query** Give the measured protein stability index of GQFVTLGCTLVTLLANV [RMP1] .
**Result** 2.58

**Query** Give the measured protein stability index of YWTQYLGLFIHKISFSG [YJL039C/NUP192] .
**Result** 1.89

**Query** Give the measured protein stability index of IKRMAIRNIVEAAAVRD [RPS26A] .
**Result** 1.93

**Query** Give the measured protein stability index of AKRIRVSHHATTFTHCE [RPB2] .
**Result** 2.88

**Query** Give the measured protein stability index of AELKLAGEFGLKNKKEI [RPS9A] .
**Result** 3.21

**Query** Give the measured protein stability index of TALEHKVVNGNSADAAY [FAS2] .
**Result** 3.13

**Query** Give the measured protein stability index of LYNVMGINKKKLLAISK [RPC31] .
**Result** 3.5

**Query** Give the measured protein stability index of NKIINWEISNPDFLSKY [NUT1] .
**Result** 1.8

**Query** Give the measured protein stability index of DVVGTLSRNGKPVMEVT [FAS1] .
**Result** 2.63

**Query** Give the measured protein stability index of FDYSVILNSIPAAANLD [YJL039C/NUP192] .
**Result** 1.26

----------
# assaySummary: protein stability index of a GFP-peptide fusion (yeast GPS) (PSI 1-4); higher = more stable; sorted into four equal gates, so the index is relative within each strain
# measurementContext: doa10∆
parameter: protein stability index
Hey, just send me the number, nothing else.

In the examples that follow, each entry is paired with its recorded protein stability index.
{"columns": ["monomerSequence", "protein stability index"],
 "data": [
  ["MIVYYKDAISFIKEIHK [YCS4]", 2.19],
  ["FDEEFDPFKTSSFNKRS [IRR1]", 2.76],
  ["MVDVEEKSQEVEYVDPT [RPN7]", 3.06],
  ["QLEEDENITNKVTEKVL [CSI1]", 3.2],
  ["HGQLKLSIQYMIQKVME [RPN5]", 2.17]
]}

**Query** Give the measured protein stability index of YLIVAGVDPTGSHLFSI [PUP1] .
**Result** 1.84

**Query** Give the measured protein stability index of VEDGNILVFQVSMKANK [RPL25] .
**Result** 2.58

**Query** Give the measured protein stability index of LHKNFESENFKIIALQP [RGR1] .
**Result** 2.56

**Query** Give the measured protein stability index of TTAVEDEDDDLDEDDVN [RPB4] .
**Result** 3.5

**Query** Give the measured protein stability index of PKVPVSAAATPSLNKTI [GAL11] .
**Result** 2.5

**Query** Give the measured protein stability index of NNNNTNTQPSASGFGFG [YGR119C/NUP57] .
**Result** 3.22
